Value source: patent US11603349B2

- Assay Explanation: in vitro
- Condition Parameters: rat, CC50 (μM)
Structures can show the parent of a compound that is named as a salt.
CC50 at 48 h by entry:
Could you give me the number in µM? Just the number is fine.

COc1cc(/C=C/C(=O)Nc2ccccc2F)ccc1C1=CCNCC1; 13.5
COc1ccc(/C=C/C(=O)Nc2ccccc2C(=O)O)cc1C1=CCN(C)CC1 [Example 104, trifluoroacetic acid salt]; 281
COc1cc(C2CC2C(=O)Nc2ccccc2F)ccc1C1=CCNCC1 (centres unmarked); 11.7
COc1cc(/C=C/C(=O)Nc2ccc(C#N)cc2)ccc1C1=CCNCC1 [Example 139, trifluoroacetic acid salt]; 9.03
COc1cc(/C=C/C(=O)Nc2ccc(F)cc2)ccc1C1=CCNCC1; 10.8

// next item, CC50 at 48 h requested
Tell me the measured CC50 at 48 h of COc1cc(C2CC2C(=O)Nc2ccc(C#N)cc2)ccc1C1=CCNCC1 (centres unmarked) , please.
8.47

###

log10 CC50 at 48 h by entry:
- Assay Explanation: MTS tetrazolium reduction cell viability assay
- Condition Parameters: rat, rat mesangial cells (1097/IRMC cells), TGF-β1 stimulated, CC50 (μM), vs 1% DMSO vehicle
Values reflect log10 of reported CC50 at 48 h (µM).

C#CCOc1ccc(/C=C/C(=O)Nc2ccccc2-n2cnc(C)n2)cc1CC; 1.91
COc1cc(/C=C/C(=O)Nc2ccccc2C(=O)O)ccc1OCCc1ccccn1; 2.18
COc1ccc(/C=C/C(=O)Nc2ccccc2C(=O)O)c(OCCN(C)C)c1OC; 2.47

Tell me the measured log10 CC50 at 48 h of C#CCOc1ccc(/C=C/C(=O)n2nc(O)c3ccccc32)cc1OC , please.
2.48

Try the compound C#CCOc1ccc(/C=C/C(=O)Nc2ccccc2-c2cn(C)cn2)cc1OC
2.28

###

CC50 at 48 h by entry:
- Assay Explanation: MTS tetrazolium reduction cell viability assay
- Condition Parameters: rat, rat mesangial cells (1097/IRMC cells), TGF-β1 stimulated, CC50 (μM), vs 1% DMSO vehicle

C#CCOc1ccc(C2CC2C(=O)Nc2ccc(C#N)cc2)cc1OC (stereo not drawn); > 300 µM
C#CCOc1ccc(/C=C/C(=O)Nc2ccccc2C(=O)Nc2cnn(C)c2)cc1OC; > 300 µM
COc1cc(/C=C/C(=O)Nc2ccccc2C(=O)O)ccc1CN1CCN(C)CC1; > 300 µM
C#CCOc1ccc(/C=C/C(=O)Nc2ccccc2-c2n[nH]c(C)n2)cc1OC; > 300 µM
C#CCOc1ccc(/C=C/C(=O)Nc2ccccc2C(=O)O)c(OC2CCNC2)c1OC (stereo not drawn); > 100 µM

Tell me the measured CC50 at 48 h of COc1cc(/C=C/C(=O)Nc2ccccc2Cl)ccc1OCC1COC1 , please.
> 300 µM

Try the compound C#CCOc1ccc(/C=C/C(=O)Nc2ccccc2F)cc1CC
> 300 µM

Try the compound O=C(/C=C/c1ccc2c(c1)NC(=O)CO2)Nc1ccccc1C(=O)O
> 300 µM

Try the compound C#CCOc1ccc(/C=C/C(=O)n2nc(O)c3ccccc32)cc1CC
> 27.5 µM

###

CC50 at 48 h by entry:
- Assay Explanation: MTS tetrazolium reduction cell viability assay
- Condition Parameters: rat, rat mesangial cells (1097/IRMC cells), TGF-β1 stimulated, CC50 (μM), vs 1% DMSO vehicle

Past entries and their recorded results:
COc1cc(/C=C/C(=O)Nc2ccccc2C(=O)O)ccc1OCC1COC1; > 300 µM
CN1CCOc2cc(/C=C/C(=O)Nc3ccccc3C(=O)O)ccc21; > 300 µM

// next item, CC50 at 48 h requested
Tell me the measured CC50 at 48 h of COc1ccc(C2CC2C(=O)Nc2ccc(Cl)cc2)cc1OCc1cnn(C)c1 (stereo not drawn) , please.
> 54.8 µM

###

CC50 at 48 h by entry:
- Assay Explanation: MTS tetrazolium reduction cell viability assay
- Condition Parameters: rat, rat mesangial cells (1097/IRMC cells), TGF-β1 stimulated, CC50 (μM), vs 1% DMSO vehicle

C#CCOc1ccc(/C=C/C(=O)Nc2ccccc2C(=O)Nc2nn[nH]n2)cc1OC [Example 31]; > 300 µM
C#CCOc1ccc(/C=C/C(=O)Nc2ccccc2-c2nnc(C)o2)cc1OC [Example 29]; > 300 µM
COc1ccc(/C=C/C(=O)Nc2ccccc2Cl)cc1OCc1cnn(C)c1 [Example 159]; > 10 µM
COc1ccc(/C=C/C(=O)Nc2ccccc2C(=O)O)cc1COC1CCN(C)CC1 [Example 70]; > 300 µM
C#CCOc1ccc(/C=C/C(=O)Nc2ccccc2-c2cn[nH]c2)cc1OC [Example 24]; 41.4 µM
COc1cc(/C=C/C(=O)Nc2ccc(Cl)cc2)ccc1OCC1COC1 [Example 153]; > 300 µM
C#CCOc1ccc(/C=C/C(=O)Nc2ccccc2C(=O)O)cc1OC [FT011, reference compound]; 119 µM
C#CCOc1ccc(/C=C/C(=O)Nc2ccccc2C(=O)O)c(OCCCN(C)C)c1OC [Example 86]; > 300 µM
COc1ccc(/C=C/C(=O)Nc2ccccc2C(=O)O)cc1OCc1ccnn1C [Example 67]; 144 µM

// next item, CC50 at 48 h requested
Tell me the measured CC50 at 48 h of COc1ccc(/C=C/C(=O)Nc2cccnc2)cc1OCc1cnn(C)c1 [Example 150] , please.
> 31.6 µM

###

- Assay Explanation: MTS tetrazolium reduction cell viability assay
- Condition Parameters: rat, rat mesangial cells (1097/IRMC cells), TGF-β1 stimulated, CC50 (μM), vs 1% DMSO vehicle
So basically: is CC50 at 48 h under 200 µM? Then fulfilled. Not under? Then not fulfilled.

C#CCOCc1ccc(/C=C/C(=O)Nc2ccccc2C(=O)O)cc1OC; not fulfilled
C#CCOc1ccc(/C=C/C(=O)Nc2ccccc2F)cc1OC; not fulfilled
C#CCOc1ccc(/C=C/C(=O)Nc2ccccc2C(=O)NCc2cncn2C)cc1OC; not fulfilled
COc1cc(/C=C/C(=O)Nc2ccccc2C(=O)O)ccc1OC1CCN(C)C1 (stereo not drawn); not fulfilled
COc1cc(C2CC2C(=O)Nc2ccc(Cl)cc2)ccc1OCC1COC1 (stereo not drawn); not fulfilled

Given the entry CN1C(=O)COc2cc(/C=C/C(=O)Nc3ccccc3C(=O)O)ccc21 , would its reported CC50 at 48 h be below 200 µM?
not fulfilled

Try the molecule C#CCOc1ccc(/C=C/C(=O)Nc2ccccc2C#N)cc1OC
not fulfilled

Try the molecule COc1c(OCC2CC2)ccc(/C=C/C(=O)Nc2ccccc2C(=O)O)c1OCCN(C)C
not fulfilled

Try the molecule COc1ccc(/C=C/C(=O)Nc2cccc(Cl)c2)cc1OCc1cnn(C)c1
not fulfilled

Try the molecule COc1cc(/C=C/C(=O)Nc2ccccc2F)ccc1OC1CCN(C)C1 (stereo not drawn)
fulfilled

Try the molecule C#CCOc1ccc(/C=C/C(=O)Nc2ccc(Cl)c(Cl)c2)cc1OC
fulfilled

Try the molecule COc1cc(C2CC2C(=O)Nc2cccc(Cl)c2)ccc1OCC1COC1 (stereo not drawn)
fulfilled

Try the molecule COc1cc(/C=C/C(=O)Nc2ccccc2C(=O)O)ccc1N1CCN(C)CC1
not fulfilled

Try the molecule C#CCOc1ccc(/C=C/C(=O)Nc2ccccc2Br)cc1OC
not fulfilled

Try the molecule COc1ccc(/C=C/C(=O)Nc2ccccc2C(=O)O)cc1OCCc1ccccn1
not fulfilled

Try the molecule COc1ccc(/C=C/C(=O)Nc2ccccc2C(=O)O)cc1OCCc1cccnc1
fulfilled

Try the molecule COc1cc(C2CC2C(=O)Nc2ccccc2F)ccc1OC1CCN(C)C1 (stereo not drawn)
fulfilled

Try the molecule C#CCOc1ccc(/C=C/C(=O)Nc2ccccc2-c2noc(C)n2)cc1OC
fulfilled

Try the molecule COc1cc(/C=C/C(=O)Nc2cccc(Cl)c2)ccc1OCC1COC1
not fulfilled

###

- Assay Explanation: MTS tetrazolium reduction cell viability assay
- Condition Parameters: rat, rat mesangial cells (1097/IRMC cells), TGF-β1 stimulated, CC50 (μM), vs 1% DMSO vehicle
Experimental Endpoint: CC50 at 48 h

Past entries and their recorded results:
C#CCOc1ccc(/C=C/C(=O)Nc2ccccc2-c2ncon2)cc1OC; > 300 µM
CN1CCOc2ccc(/C=C/C(=O)Nc3ccccc3C(=O)O)cc21; > 100 µM
COc1ccc(/C=C/C(=O)Nc2cccc(Cl)c2)cc1N1CCOCC1; > 300 µM

// next item, CC50 at 48 h requested
Tell me the measured CC50 at 48 h of C#CCOc1ccc(/C=C/C(=O)Nc2ccccc2C(=O)O)c(OC2CCNCC2)c1OC , please.
> 300 µM

###

CC50 at 48 h by entry:
- Assay Explanation: MTS tetrazolium reduction cell viability assay
- Condition Parameters: rat, rat mesangial cells (1097/IRMC cells), TGF-β1 stimulated, CC50 (μM), vs 1% DMSO vehicle
Where a name gives a salt, the structure may show the parent alone.
Could you give me the number in µM? Just the number is fine.

Past entries and their recorded results:
C#CCOc1ccc(/C=C/C(=O)Nc2ccccc2C(=O)Nc2ccncc2)cc1OC; 11.1
C#CCOc1ccc(/C=C/C(=O)Nc2ccccc2)cc1OC; 109
COc1ccc(/C=C/C(=O)Nc2ccc(C#N)cc2)c(OCCN(C)C)c1OC [Example 129, trifluoroacetic acid salt]; 28.9
COc1cc(/C=C/C(=O)Nc2ccc(F)cc2)ccc1OC1CCN(C)C1 (stereo not shown) [Example 132, trifluoroacetic acid salt]; 16.6
C#CCOc1ccc(/C=C/C(=O)Nc2ccccc2C(=O)NC2CCNCC2)cc1OC; 30.6
COc1cccc(/C=C/C(=O)Nc2cccc(C#N)c2)c1OCCN(C)C; 18.1
C#CCOc1ccc(/C=C/C(=O)Nc2ccccc2-c2cnn(C)c2)cc1OC; 240

Tell me the measured CC50 at 48 h of C#CCOc1ccc(/C=C/C(=O)Nc2ccccc2C(=O)NS(C)(=O)=O)cc1OC , please.
120
